The values you see were collected from patent US7078414B2.

- targetSystem: NHE-1 subtype (Homo sapiens, UniProt P19634)
- Construct: expressed in transfected cells; host or cells: LAP-1 cells (parental line has no endogenous NHE activity), stably transfected and kept under G418 selection
- Sequence (P19634 whole entry): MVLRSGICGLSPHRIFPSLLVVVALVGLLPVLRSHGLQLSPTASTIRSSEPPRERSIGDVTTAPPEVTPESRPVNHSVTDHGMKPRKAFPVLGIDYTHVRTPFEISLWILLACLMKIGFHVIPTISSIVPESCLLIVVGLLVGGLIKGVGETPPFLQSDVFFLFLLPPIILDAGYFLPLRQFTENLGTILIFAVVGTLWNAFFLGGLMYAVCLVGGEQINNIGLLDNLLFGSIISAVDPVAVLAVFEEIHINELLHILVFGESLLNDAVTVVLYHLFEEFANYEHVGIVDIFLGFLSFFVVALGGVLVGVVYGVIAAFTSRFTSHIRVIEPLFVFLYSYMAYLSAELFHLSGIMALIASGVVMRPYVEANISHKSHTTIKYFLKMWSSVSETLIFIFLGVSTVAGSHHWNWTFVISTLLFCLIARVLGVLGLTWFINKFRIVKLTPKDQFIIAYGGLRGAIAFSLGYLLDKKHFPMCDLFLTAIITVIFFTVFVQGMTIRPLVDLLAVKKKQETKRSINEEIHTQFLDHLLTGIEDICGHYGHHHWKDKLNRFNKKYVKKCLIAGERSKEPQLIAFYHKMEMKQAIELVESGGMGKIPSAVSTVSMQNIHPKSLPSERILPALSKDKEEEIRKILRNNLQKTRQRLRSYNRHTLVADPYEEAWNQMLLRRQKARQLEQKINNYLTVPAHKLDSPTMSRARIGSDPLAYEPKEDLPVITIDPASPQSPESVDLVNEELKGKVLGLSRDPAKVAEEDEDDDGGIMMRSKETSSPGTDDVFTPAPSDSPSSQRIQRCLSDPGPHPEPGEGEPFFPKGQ
- measurementProtocol: NHE inhibition FLIPR test (intracellular pH recovery, BCECF) in transfected LAP-1 cell lines expressing NHE subtypes
- Type: cell-based
- particulars: transfected LAP-1 cells expressing NHE-1 subtype, read-out: IC50 (NHE1)
pIC50: −log10 of the molar value. Where a name gives a salt, the structure may show the parent alone.
propertyName: pIC50

Worked set:
compound=NC(N)=NC(=O)c1ccn(-c2ccnc3ccc(F)cc23)c1 propertyname=pIC50 readoutvalue=7.54
compound="Cc1c(C(=O)NC(=N)N)cn(-c2ccnc3ccccc23)c1C [Example 11, dihydrochloride]" propertyname=pIC50 readoutvalue=7.72
compound=N=C(N)NC(=O)c1ccn(-c2cccc3ncccc23)c1 propertyname=pIC50 readoutvalue=7.36
compound="Cc1cn(-c2ccnc3cc(Cl)ccc23)cc1C(=O)N=C(N)N [Example 18, trifluoroacetate]" propertyname=pIC50 readoutvalue=8.80
compound="Cl.NC(N)=NC(=O)c1ccn(-c2ccc3ccccc3n2)c1 [Example 1, hydrochloride]" propertyname=pIC50 readoutvalue=7.31
compound="Cc1cn(-c2ccnc3ccc(F)cc23)cc1C(=O)N=C(N)N [Example 20, trifluoroacetate]" propertyname=pIC50 readoutvalue=9.10
compound=N=C(N)NC(=O)c1ccn(-c2cccc3cccnc23)c1 propertyname=pIC50 readoutvalue=7.05
compound="Cc1cn(-c2nccc3ccccc23)cc1C(=O)NC(=N)N.Cl [Example 10, hydrochloride]" propertyname=pIC50 readoutvalue=9.80
compound=NC(N)=NC(=O)c1ccn(-c2ccnc3c(F)cccc23)c1 propertyname=pIC50 readoutvalue=7.01

1: Cc1cn(-c2cncnc2)cc1C(=O)NC(=N)N
2: N=C(N)NC(=O)c1cn(-c2ccnc3ccccc23)cc1C(F)(F)F
Compare reported pIC50 values for 1 and 2 . Which is lower? Please reply using the label of the selected record.
1
